src = patent US20250325677A1

Measured Emax by item
- TEST_SYSTEM: STAT6 (Homo sapiens (Human), UniProt P42226)
- Sequence (P42226 whole entry): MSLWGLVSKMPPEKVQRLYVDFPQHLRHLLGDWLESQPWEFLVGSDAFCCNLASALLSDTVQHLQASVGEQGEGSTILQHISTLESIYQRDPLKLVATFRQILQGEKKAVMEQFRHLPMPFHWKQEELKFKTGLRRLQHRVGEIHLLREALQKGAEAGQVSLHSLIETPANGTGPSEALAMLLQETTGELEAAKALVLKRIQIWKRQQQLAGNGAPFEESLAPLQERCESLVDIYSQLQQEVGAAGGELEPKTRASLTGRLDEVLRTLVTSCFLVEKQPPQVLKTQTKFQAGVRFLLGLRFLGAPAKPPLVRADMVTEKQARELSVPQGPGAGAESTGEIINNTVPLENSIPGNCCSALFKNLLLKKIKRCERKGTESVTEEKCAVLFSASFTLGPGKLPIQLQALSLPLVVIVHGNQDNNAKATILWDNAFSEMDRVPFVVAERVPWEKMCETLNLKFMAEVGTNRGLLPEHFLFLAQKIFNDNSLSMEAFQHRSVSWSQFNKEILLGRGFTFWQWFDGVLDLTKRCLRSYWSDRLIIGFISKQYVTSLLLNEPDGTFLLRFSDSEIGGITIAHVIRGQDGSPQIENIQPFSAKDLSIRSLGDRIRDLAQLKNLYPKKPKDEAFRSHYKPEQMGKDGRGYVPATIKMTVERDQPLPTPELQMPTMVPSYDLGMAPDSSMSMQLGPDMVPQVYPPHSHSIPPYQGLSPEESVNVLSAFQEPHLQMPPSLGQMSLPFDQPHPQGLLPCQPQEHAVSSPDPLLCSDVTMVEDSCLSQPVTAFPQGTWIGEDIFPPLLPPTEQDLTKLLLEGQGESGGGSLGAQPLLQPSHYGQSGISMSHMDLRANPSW
- PROCEDURE_SUMMARY: STAT6 degrader assay (HiBiT, HeLa LgBiT clone 4.14)
- Type: cell-based
- STATED_CONDITIONS: HeLa LgBiT clone 4.14, 4-24 h; read-out: STAT6 degradation Emax (%)

The examples below pair each entry with its known result.
MOLECULE	Emax
Cn1c(CN2CCC(c3ccc(C(=O)N4CCC(Cn5cc(-c6cccc7c6n(C)c(=O)n7C6CCC(=O)NC6=O)nn5)CC4)cc3)CC2)cc2c(-c3ccc4[nH]ncc4c3)ccnc21 (centres unmarked)	< 20%
Cn1c(CN2CCC(c3ccc(C(=O)N4CCC(CN5CCN(c6ccc7c(c6)n(C)c(=O)n7C6CCC(=O)NC6=O)CC5)CC4)cc3)CC2)cc2c(-c3ccc(N)nc3)ccnc21 (centres unmarked)	40 to 50%

Lab note: molecule C[C@@H](c1cc2c(-c3ccc(N)nc3)ccnc2n1C)N1CCC(c2ccc(C(=O)N3CCC(CN4CCN(Cc5ccc6c(c5)n(CCO)c(=O)n6C5CCC(=O)NC5=O)CC4)CC3)cc2)CC1 (some centres unmarked) tested on STAT6 (Homo sapiens (Human), UniProt P42226); recorded Emax was 70 to 80%

Lab note: molecule Cn1c(CN2CCC(c3ccc(C(=O)N4CCN(CC5CCN(Cc6cccc7c6n(C)c(=O)n7C6CCC(=O)NC6=O)CC5)CC4)cc3)CC2)cc2c(-c3ccc4[nH]ncc4c3)ccnc21 (centres unmarked) tested on STAT6 (Homo sapiens (Human), UniProt P42226); recorded Emax was 20 to 30%

Lab note: molecule Cn1c(CN2CCC(c3ccc(C(=O)N4CCC(Cn5cc(-c6ccc7c(c6)n(C)c(=O)n7C6CCC(=O)NC6=O)cn5)CC4)cc3)CC2)cc2c(-c3ccc4[nH]ncc4c3)ccnc21 (centres unmarked) tested on STAT6 (Homo sapiens (Human), UniProt P42226); recorded Emax was 30 to 40%
